Entries annotated with measured Mean % WT Binding
Target: human CD33 I278A (human, UniProt P20138 18-364)
Sequence (P20138 18-364 I278A limits assumed): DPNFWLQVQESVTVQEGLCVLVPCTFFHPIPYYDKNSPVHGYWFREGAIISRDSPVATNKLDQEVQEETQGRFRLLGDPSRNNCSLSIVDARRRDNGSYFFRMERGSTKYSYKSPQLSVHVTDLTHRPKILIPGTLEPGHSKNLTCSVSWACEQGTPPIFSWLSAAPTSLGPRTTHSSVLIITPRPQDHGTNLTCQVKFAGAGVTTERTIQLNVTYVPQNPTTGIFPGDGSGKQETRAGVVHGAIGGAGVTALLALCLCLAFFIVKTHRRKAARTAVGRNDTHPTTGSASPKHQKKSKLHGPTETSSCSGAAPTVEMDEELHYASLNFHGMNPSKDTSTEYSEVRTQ
Assay: alanine scan, flow cytometry, HEK293-T;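 also: antibody binding to each alanine-substituted CD33 mutant expressed transiently in HEK293-T, read as fluorescence minus background, mean of duplicates, relative to wild-type CD33 set as 100%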
Give a bare numeral; the unit % WT binding is implied.

Examples from the recorded data:
- Refmab #2 (antibody, V domains shown, The alanine scan used IgG or Fab) VH: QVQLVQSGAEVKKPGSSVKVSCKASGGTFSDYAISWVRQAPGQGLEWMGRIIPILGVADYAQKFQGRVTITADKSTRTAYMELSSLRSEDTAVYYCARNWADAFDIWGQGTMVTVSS VL: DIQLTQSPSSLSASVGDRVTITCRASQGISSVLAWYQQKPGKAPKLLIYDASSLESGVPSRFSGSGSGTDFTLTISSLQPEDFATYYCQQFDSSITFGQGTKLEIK: 106
- Refmab #4 (antibody, V domains shown, The alanine scan used IgG or Fab) VH: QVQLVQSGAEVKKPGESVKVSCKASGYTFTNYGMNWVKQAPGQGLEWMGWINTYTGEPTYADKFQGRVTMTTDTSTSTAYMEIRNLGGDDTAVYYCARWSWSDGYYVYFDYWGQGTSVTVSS VL: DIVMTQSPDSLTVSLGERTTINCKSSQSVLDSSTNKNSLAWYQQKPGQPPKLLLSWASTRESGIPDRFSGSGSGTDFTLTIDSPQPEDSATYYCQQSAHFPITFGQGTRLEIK: 116
- Refmab #1 (antibody, V domains shown, The alanine scan used IgG or Fab; also called hP67.6) VH: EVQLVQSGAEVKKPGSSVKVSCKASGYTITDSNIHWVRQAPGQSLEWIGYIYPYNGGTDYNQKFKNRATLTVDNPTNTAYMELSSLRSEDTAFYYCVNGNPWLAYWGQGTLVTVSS VL: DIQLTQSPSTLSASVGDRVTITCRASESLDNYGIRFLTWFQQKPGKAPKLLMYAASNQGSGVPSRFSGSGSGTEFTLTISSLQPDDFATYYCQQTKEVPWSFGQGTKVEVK: 99.1

Return reported Mean % WT Binding; argument: Refmab #3 (antibody, V domains shown, The alanine scan used IgG or Fab) VH: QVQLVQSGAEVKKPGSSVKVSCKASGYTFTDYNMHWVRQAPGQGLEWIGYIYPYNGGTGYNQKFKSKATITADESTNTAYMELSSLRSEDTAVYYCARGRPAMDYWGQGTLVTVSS VL: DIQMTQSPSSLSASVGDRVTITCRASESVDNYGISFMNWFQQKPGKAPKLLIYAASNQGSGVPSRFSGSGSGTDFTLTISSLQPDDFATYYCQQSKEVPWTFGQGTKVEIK
100
